Entries and their measured Tumour surface, overall values (Median) follow.
System: Renca cells (renal cell carcinoma)
Test: Effect of the isomers on in vivo tumour growth in mice challenged with Renca cells
Settings: day 14 after tumour inoculation; 260 ng/mouse i.p. on days 6, 7 and 14; s.c. Renca in Balb/c mice
experimental.endpoint: Tumour surface, overall values (Median)

Br.N[C@@]1(C[n+]2ccccc2)C[C@@H](C(=O)O)NC1=O.[Br-] (single isomer, unassigned; isomer 1) [isomer 1] ... 12.5 mm^2
Br.N[C@]1(C[n+]2ccccc2)C[C@H](C(=O)O)NC1=O.[Br-] (single isomer, unassigned; isomer 4) [isomer 4] ... 0 mm^2
Br.N[C@@]1(C[n+]2ccccc2)C[C@H](C(=O)O)NC1=O.[Br-] (single isomer, unassigned; isomer 2) [isomer 2] ... 9 mm^2
Br.N[C@]1(C[n+]2ccccc2)C[C@@H](C(=O)O)NC1=O.[Br-] (single isomer, unassigned; isomer 3) [isomer 3] ... 4 mm^2

====

Test system: Renca cells (renal cell carcinoma)
Test: Effect of the isomers on in vivo tumour growth in mice challenged with Renca cells
Conditions: day 25 after tumour inoculation; 260 ng/mouse i.p. on days 6, 7 and 14; s.c. Renca in Balb/c mice
// Tumour surface, overall values (Mean) lookup, one value per entry
experimental.endpoint: Tumour surface, overall values (Mean) (mm^2)

Br.N[C@@]1(C[n+]2ccccc2)C[C@H](C(=O)O)NC1=O.[Br-] (single isomer, unassigned; isomer 2) [isomer 2] ... 156.53
Br.N[C@@]1(C[n+]2ccccc2)C[C@@H](C(=O)O)NC1=O.[Br-] (single isomer, unassigned; isomer 1) [isomer 1] ... 149.97
Br.N[C@]1(C[n+]2ccccc2)C[C@@H](C(=O)O)NC1=O.[Br-] (single isomer, unassigned; isomer 3) [isomer 3] ... 106.17
Br.N[C@]1(C[n+]2ccccc2)C[C@H](C(=O)O)NC1=O.[Br-] (single isomer, unassigned; isomer 4) [isomer 4] ... 81.3

====

Tested on: Renca cells (renal cell carcinoma)
Test: Effect of the isomers on in vivo tumour growth in mice challenged with Renca cells
Conditions: day 25 after tumour inoculation; 260 ng/mouse i.p. on days 6, 7 and 14; s.c. Renca in Balb/c mice
experimental.endpoint: Tumour volume, overall values (Median) (mm^3)

Br.N[C@]1(C[n+]2ccccc2)C[C@@H](C(=O)O)NC1=O.[Br-] (single isomer, unassigned; isomer 3) [isomer 3] ... 405
Br.N[C@@]1(C[n+]2ccccc2)C[C@@H](C(=O)O)NC1=O.[Br-] (single isomer, unassigned; isomer 1) [isomer 1] ... 907.5
Br.N[C@@]1(C[n+]2ccccc2)C[C@H](C(=O)O)NC1=O.[Br-] (single isomer, unassigned; isomer 2) [isomer 2] ... 613.25
Br.N[C@]1(C[n+]2ccccc2)C[C@H](C(=O)O)NC1=O.[Br-] (single isomer, unassigned; isomer 4) [isomer 4] ... 238.25

====

Tested on: Renca cells (renal cell carcinoma)
Assay: Effect of the isomers on in vivo tumour growth in mice challenged with Renca cells
Details: day 18 after tumour inoculation; 260 ng/mouse i.p. on days 6, 7 and 14; s.c. Renca in Balb/c mice
experimental.endpoint: Tumour surface, overall values (Mean) (mm^2)

Br.N[C@@]1(C[n+]2ccccc2)C[C@H](C(=O)O)NC1=O.[Br-] (single isomer, unassigned; isomer 2) [isomer 2] ... 55.14
Br.N[C@]1(C[n+]2ccccc2)C[C@@H](C(=O)O)NC1=O.[Br-] (single isomer, unassigned; isomer 3) [isomer 3] ... 31
Br.N[C@@]1(C[n+]2ccccc2)C[C@@H](C(=O)O)NC1=O.[Br-] (single isomer, unassigned; isomer 1) [isomer 1] ... 44.07
Br.N[C@]1(C[n+]2ccccc2)C[C@H](C(=O)O)NC1=O.[Br-] (single isomer, unassigned; isomer 4) [isomer 4] ... 15.47
